Target: 5-HT2C receptor (Homo sapiens, UniProt P28335)
Construct: host or cells: unnamed cell lines
Sequence (P28335 33-458): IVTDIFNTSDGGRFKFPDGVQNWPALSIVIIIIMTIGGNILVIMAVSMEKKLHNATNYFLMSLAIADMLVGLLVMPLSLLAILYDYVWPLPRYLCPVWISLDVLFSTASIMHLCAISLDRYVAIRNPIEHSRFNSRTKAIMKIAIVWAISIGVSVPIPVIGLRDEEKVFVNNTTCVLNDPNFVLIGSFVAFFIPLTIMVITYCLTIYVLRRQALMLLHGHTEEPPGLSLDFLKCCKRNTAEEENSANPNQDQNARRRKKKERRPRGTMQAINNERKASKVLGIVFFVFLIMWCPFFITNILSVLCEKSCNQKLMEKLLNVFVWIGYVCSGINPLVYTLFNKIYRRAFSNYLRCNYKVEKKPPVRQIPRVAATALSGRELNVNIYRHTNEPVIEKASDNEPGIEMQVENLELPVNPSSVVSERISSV
Assay: Calcium mobilization assay, antagonist format, 5-HT2C receptor
Assay type: cell-based
Set-up: dose or concentration left out as unconfirmed
parameter-measured: inhibition

molecule: [2H]C([2H])([2H])N1CCc2[nH]c3cc(OC4CC4)ccc3c2CC1
assay-system: 5-HT2C receptor (Homo sapiens, UniProt P28335)
inhibition: 101%
--
molecule: c1cc2c3c([nH]c2cc1OC1CC1)CCN(C1CC1)CC3
assay-system: 5-HT2C receptor (Homo sapiens, UniProt P28335)
inhibition: 71.7%
--
molecule: CN1CCc2[nH]c3c4c(ccc3c2CC1)OCC4
assay-system: 5-HT2C receptor (Homo sapiens, UniProt P28335)
inhibition: 93.1%
--
molecule: CN1CCc2[nH]c3cc(S(F)(F)(F)(F)F)ccc3c2CC1
assay-system: 5-HT2C receptor (Homo sapiens, UniProt P28335)
inhibition: 101%
--
molecule: CN1CCc2[nH]c3c4c(ccc3c2CC1)OCCC4
assay-system: 5-HT2C receptor (Homo sapiens, UniProt P28335)
inhibition: 98.9%

Record summary for COc1ccc2c3c([nH]c2c1)CCN(C1CC1)CC3 : reported inhibition = 100%

Measured values drawn from patent US20260138985A1 for this set.
